molecular target: Cynomolgus monkey CTGF-Fc (cynomolgus monkey); experiment: ELISA, cyno-CTGF-mFc captured by anti-mFc
Sequence (P29279 other isoform, or with tags, fused parts or gaps limits assumed): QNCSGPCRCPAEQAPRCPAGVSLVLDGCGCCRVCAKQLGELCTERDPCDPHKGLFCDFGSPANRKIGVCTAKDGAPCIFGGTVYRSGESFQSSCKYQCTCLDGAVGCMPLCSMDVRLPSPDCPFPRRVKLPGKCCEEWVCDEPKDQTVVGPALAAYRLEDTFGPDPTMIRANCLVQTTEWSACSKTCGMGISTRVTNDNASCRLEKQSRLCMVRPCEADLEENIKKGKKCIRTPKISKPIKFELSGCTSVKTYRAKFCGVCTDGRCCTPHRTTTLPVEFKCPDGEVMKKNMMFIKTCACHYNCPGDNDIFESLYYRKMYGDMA
Measure: EC50 (nM)
The answer is to be given in nM; state only the numeric part.

[
  {
    "Binder": "Hu147-13wk (antibody, human IgG1, kappa, V domains shown) VH: EVQLVESGGGLVQPGGSLRLSCAASGFTFSTYAMNWVRQAPGKGLEWVGRIRTKSNNYATYYADSVKDRFTISRDDSKNSLYLQMNSLKTEDTAVYYCVETGFAYWDQGTLVTVSS VL: EIVLTQSPATLSLSPGERATLSCSASSSVSYMHWFQQKPGQSPKLWIYSTSNLASGVPARFSGSGSGTDYTLTISSLEPEDFAVYYCQQRSSYPLTFGQGTKLEIKR",
    "EC50 [nM]": 0.043
  },
  {
    "Binder": "Hu164-69wl (antibody, human IgG1, lambda, V domains shown) VH: EVTLKESGPVLVKPTETLTLTCTVSGFSLSTFGVHWIRQPPGKGLEWLGVIWRRGGTDYNAAFMSRLTISKDTSKSQVVFTMTNMDPVDTATYYCARDGGFDYWGQGTTVTVSS VL: ESVVTQPPSVSGAPGQRVTISCRSSIGAVTTSNYANWVQQLPGTAFKGLIGGTSNRAPGVPDRFSGSKSGTSASLAITGLQAEDEADYYCALWYSTHYVFGGGTKLTVLG",
    "EC50 [nM]": 0.032
  },
  {
    "Binder": "Hu164-57wl (antibody, human IgG1, lambda, V domains shown) VH: EVTLKESGPVLVKPTETLTLTCTVSGFSLSTFGVHWIRQPPGKALEWLAVIWRRGGTDYNAAFMSRLTISKDTSKSQVVLTMTNMDPVDTATYYCARDGGFDYWGQGTTVTVSS VL: ETVVTQEPSLTVSPGGTVTLTCRSSIGAVTTSNYANWVQQKPGQAFRGLIGGTSNRAPWTPARFSGSLLGGKAALTLSGVQPEDEAEYYCALWYSTHYVFGGGTKLTVLG",
    "EC50 [nM]": 0.029
  },
  {
    "Binder": "Hu147-14wk (antibody, human IgG1, kappa, V domains shown) VH: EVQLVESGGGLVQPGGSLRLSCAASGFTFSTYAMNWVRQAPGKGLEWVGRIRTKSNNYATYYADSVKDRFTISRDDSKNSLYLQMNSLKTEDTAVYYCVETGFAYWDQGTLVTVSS VL: DIQMTQSPSSLSASVGDRVTITCSASSSVSYMHWFQQKPGKSPKLLIYSTSNLASGVPSRFSGSGSGTDYTLTISSLQPEDFATYYCQQRSSYPLTFGQGTKLEIKR",
    "EC50 [nM]": 0.077
  }
]

Continue with the next binder.
Query: What value of EC50 has been recorded for this entry: Hu147-15wk (antibody, human IgG1, kappa, V domains shown) VH: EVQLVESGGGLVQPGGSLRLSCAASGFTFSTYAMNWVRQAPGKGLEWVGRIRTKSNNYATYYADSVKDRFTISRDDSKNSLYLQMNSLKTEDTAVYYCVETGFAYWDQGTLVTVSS VL: DIQLTQSPSSLSASVGDRVTITCSASSSVSYMHWFQQKPGKSPKLWIYSTSNLASGVPSRFSGSGSGTDYTLTISSLQPEDFATYYCQQRSSYPLTFGQGTKLEIKR
Reply: 0.053
